- Experiment summary: Plasma pharmacokinetics after IV CMS (Period 1)
- Assay context: human, in vivo, iv, 2.5 mg/kg, AUC(0inf), Period 1, Cohort 1: IV 2.5 mg/kg colistin base activity q12h x 2 doses; plasma after final dose; mean (SD); SD
Where a SMILES comes first, the peptide text is derived from it. Bridges are numbered along the chain shown (N, C = ends). [ ]: non-standard residue; d: D form. The star is where a group is joined. Heptanoyl(6-Me) = CC(C)CCCCC(=O)*; X1 = CC[C@H](C)CCCCC(=O)*; Dab = NCC[C@H](N)C(=O)O
Kindly supply the reported AUC(0-inf) values for the records listed here.
Numbers only, in ng·h/mL.

CC[C@H](C)CCCCC(=O)N[C@@H](CCN)C(=O)N[C@H](C(=O)N[C@@H](CCN)C(=O)N[C@H]1CCNC(=O)[C@H]([C@@H](C)O)NC(=O)[C@H](CCN)NC(=O)[C@H](CCN)NC(=O)[C@H](CC(C)C)NC(=O)[C@@H](CC(C)C)NC(=O)[C@H](CCN)NC1=O)[C@@H](C)O [colistin A] (X1-[Dab]T[Dab][Dab][Dab][dL]L[Dab][Dab]T; lactam 4-C)    23800

Request: Check the records and state AUC(0-inf) for CC(C)CCCCC(=O)N[C@@H](CCN)C(=O)N[C@H](C(=O)N[C@@H](CCN)C(=O)N[C@H]1CCNC(=O)[C@H]([C@@H](C)O)NC(=O)[C@H](CCN)NC(=O)[C@H](CCN)NC(=O)[C@H](CC(C)C)NC(=O)[C@@H](CC(C)C)NC(=O)[C@H](CCN)NC1=O)[C@@H](C)O [colistin B] ({Heptanoyl(6-Me)}-[Dab]T[Dab][Dab][Dab][dL]L[Dab][Dab]T; lactam 4-C)
Response: 3290

Data provenance is paper PMC9029538.
